- Target: TYK2 kinase domain (Homo sapiens, UniProt P29597)
- Construct: The activity of the isolated JAK1, JAK2 or TYK2 kinase domain was measured
- Sequence (P29597 897-1176 limits assumed): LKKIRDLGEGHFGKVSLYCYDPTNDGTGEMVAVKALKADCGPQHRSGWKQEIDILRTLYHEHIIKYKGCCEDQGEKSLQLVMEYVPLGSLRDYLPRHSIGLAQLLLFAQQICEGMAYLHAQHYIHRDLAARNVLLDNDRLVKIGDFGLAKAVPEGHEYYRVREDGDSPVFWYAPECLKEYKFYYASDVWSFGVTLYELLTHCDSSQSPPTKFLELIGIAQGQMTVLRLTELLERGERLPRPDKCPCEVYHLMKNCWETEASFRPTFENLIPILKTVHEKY
- Test name: JAK1, JAK2 and TYK2 Inhibition Assay Protocol (Example A): TYK2 kinase domain, Caliper LabChip peptide phosphorylation
- Condition notes: isolated TYK2 kinase domain, 1 nM enzyme, 25 uM ATP, Morrison tight binding model
Counter-ions that a name gives are not always drawn.

Molecule | Target | Ki
Cc1cc(Nc2nccc3nn(-c4c(Cl)cccc4Cl)cc23)ncc1C#N | TYK2 kinase domain (Homo sapiens, UniProt P29597) | 1 nM
N#Cc1cc(N)cc(Cl)c1-n1cc2c(Nc3cc(N)ncn3)ncc(F)c2n1 [Example 101, formate salt] | TYK2 kinase domain (Homo sapiens, UniProt P29597) | 105 nM
N#Cc1ccc(Nc2nccc3nn(-c4c(Cl)cccc4Cl)cc23)nc1 | TYK2 kinase domain (Homo sapiens, UniProt P29597) | 3 nM
Cc1cc(Nc2cc(Cl)c(-n3cc4c(Nc5cc(C)ncn5)nccc4n3)c(C#N)c2)ncn1 | TYK2 kinase domain (Homo sapiens, UniProt P29597) | 1.8 nM
N#Cc1cnc(Nc2cc(N)ncn2)c2cn(-c3c(Cl)cccc3Cl)nc12 | TYK2 kinase domain (Homo sapiens, UniProt P29597) | 1.1 nM

* * *

- Target: TYK2 kinase domain (Homo sapiens)
- Construct: The activity of the isolated JAK1, JAK2 or TYK2 kinase domain was measured
- Test name: JAK1, JAK2 and TYK2 Inhibition Assay Protocol (Example A): TYK2 kinase domain, Caliper LabChip peptide phosphorylation
- Condition notes: isolated TYK2 kinase domain, 1 nM enzyme, 25 uM ATP, Morrison tight binding model
Counter-ions that a name gives are not always drawn.
Each entry below lists one item and its recorded log10 Ki value.
Recorded metric: log10 Ki (log10 of the value in nM)

Compound | Result
Nc1cc(Nc2nccc3nn(-c4c(F)ccc(F)c4Cl)cc23)ncn1 | 0.34
Cc1cc(Nc2nccc3nn(-c4c(Cl)cccc4Cl)cc23)nc(C)n1 | 0.30
OCCN1CCN(c2cc(Nc3nccc4nn(-c5c(Cl)cccc5Cl)cc34)ncn2)CC1 | 0.28
N#Cc1cc(Cl)c(-n2cc3c(NC(=O)C4CC4)nccc3n2)c(Cl)c1 | 0.30
N#Cc1cc(Cl)c(-n2cc3c(Nc4cc(N)ncn4)ncc(F)c3n2)c(Cl)c1 [Example 34, hydrochloride salt] | -0.40
N#Cc1cccc(Cl)c1-n1cc2c(Nc3cc(N)ncn3)ncc(Cl)c2n1 | -1.00
CS(=O)(=O)c1cc(Cl)c(-n2cc3c(NC(=O)C4CC4)nccc3n2)c(Cl)c1 | 1.17
CNC(=O)Nc1nccc2nn(-c3c(Cl)cccc3Cl)cc12 | 0.52
